Where do these numbers come from? They come from the Deep4Chem optical property database.

assay: solvent given as SMILES; conditions: in CC(C)=O
Cut-off 600 nm on emission maximum, inclusive. At or above means class 1; below means class 0.

Decide: is the reported value of emission maximum for Cn1c(/C=C/c2ccc(/C=C/c3nc4ccccc4[nH]3)cc2)[n+](C)c2ccccc21 equal to or greater than 600 nm?
class 0

Another compound: COc1nc(Cl)nc(Nc2ccc3c4c(cccc24)C(=O)c2ccccc2-3)n1
class 0

Moving on to Oc1ccc(/N=C/c2ccccc2Oc2ccccc2)cc1
class 0

Subsequent entry: CN(C)CCNCc1c2ccccc2cc2ccccc12
class 0

Repeat with O=P(c1ccccc1)(c1ccccc1)n1c2ccccc2c2ccccc21
class 0

Then CNC1=C2C=CC=[N+]2[B-](F)(F)n2cccc21 ?
class 0

Try the compound Cc1ccc(-n2c3ccccc3c3cc(C(=C(C#N)C#N)c4ccccc4)ccc32)cc1
class 0

For COc1ccc(/C=C/c2cc(/C=C/c3ccc(OC)cc3)nc(/C=C/c3ccc4cc(OC)ccc4c3)n2)cc1 then?
class 0

Here is the next compound: N#Cc1ccc(/C=C2\OC(=O)c3cc(N)ccc32)cc1
class 0

Try this compound next: COc1ccc(C2=C3C(C)=CC(C)=[N+]3[B-](F)(F)n3c(/C=C/c4ccc(N(C)C)cc4)cc(C)c32)cc1
class 1

// next record O=P(c1ccccc1)(c1ccccc1)n1c2ccccc2c2cc(-n3c4ccccc4c4cc(-n5c6ccccc6c6cc(-n7c8ccccc8c8ccccc87)ccc65)ccc43)ccc21
class 0

Quick one: c1ccc(-c2ccc(-c3ccc(N(c4ccccc4)c4ccccc4)cc3)c3nsnc23)cc1
class 1

Follow-up entry: CN(C)c1ccc(/C=C/C=C2\CC/C(=C\C=C\c3ccc(N(C)C)cc3)C2=O)cc1
class 1

Next: CCCCCCCCC1(CCCCCCCC)c2cc(C#CC#Cc3ccc(N(c4ccccc4)c4ccccc4)cc3)ccc2-c2ccc(C=O)cc21
class 0

Another compound to look at: CN(C)c1ccc(-c2cc3ccc([N+](=O)[O-])cc3c(=O)o2)cc1
class 1

Query c1ccc(-c2nn(-c3ccccc3)c3nc4ccc(N(c5ccccc5)c5ccccc5)cc4cc23)cc1 next
class 0
